test system: P388 leukemia ip, CD2F1 mice, survival T/C; assay: NCI In Vivo Anticancer Drug Screen. Data for tumor model P388 Leukemia (intraperitoneal) in CD2F1 (CDF1) mice; details: endpoint: median survival time; dose: 100.0 mg/kg/injection; schedule: Q01DX009 (ip); vehicle: saline with Tween-80; higher = longer survival
Inconclusive results and toxic doses are left out.
Answer each item with its documented T/C.

# input Which T/C value belongs to `CCOC(=O)c1c(C)csc1NC(C)=O` ?
# output 120 % of control

# input Request the reported T/C associated with `CCCCC(CCCC)=NNC(=S)SC`
# output 100 % of control

# input Can you look up the measured T/C of `Cc1ccc(S(=O)(=O)CC(=O)c2ccc(Br)cc2)cc1` for me?
# output 92 % of control

# input Find the recorded T/C belonging to `CCn1c(=O)[nH]c(=O)c2conc21` and report it.
# output 96 % of control

# input Sample `CCCCCCCC/C=C\CCCCCCCCCCCC(=O)OCCN(CCOC(=O)CCCCCCCCCCC/C=C\CCCCCCCC)C(=O)c1ccccc1` — what was its T/C?
# output 116 % of control

# input Please look up its T/C: `O=C(CCl)NCc1ccc([N+](=O)[O-])cc1`
# output 108 % of control

# input What does the record list as T/C for CCCC(C)C(=O)N(C(C)=O)c1ccc(Cl)c(Cl)c1 (stereo unspecified) ?
# output 103 % of control

# input Entry `CCCOC(=O)CCCC1=NC2=CC=CC3=NC(C)=NC(=N1)N23` has what T/C?
# output 104 % of control

# input What value of T/C has been reported for the following compound? `CC(C)(CO)NC(=O)c1ccccc1Br`
# output 100 % of control

# input Give the measured T/C of C1=CC2OC2CCCCCCCC1 (mixture of isomers) .
# output 109 % of control

# input Record request: T/C value, item `O=S(Nc1ccccc1)Nc1ccccc1`
# output 90 % of control

###

system: P388 leukemia ip, CD2F1 mice, survival T/C; experiment: NCI In Vivo Anticancer Drug Screen. Data for tumor model P388 Leukemia (intraperitoneal) in CD2F1 (CDF1) mice; conditions: endpoint: median survival time; dose: 200.0 mg/kg/injection; schedule: Q01DX009 (ip); vehicle: saline with Tween-80; higher = longer survival
Toxic doses and inconclusive results are not listed.
READOUT: T/C

# input Lab note: need T/C for C=CCCC(C)CC (centres undefined) on P388 leukemia ip, CD2F1 mice, survival T/C, anyone have it?
# output 100 % of control

# input Look up T/C with P388 leukemia ip, CD2F1 mice, survival T/C for this compound: `S=C(c1c(Cl)cccc1Cl)N1CN2CCCN(C2)C1`
# output 101 % of control

# input Under P388 leukemia ip, CD2F1 mice, survival T/C: T/C value of `O=C(c1ccccc1)c1ccccc1-c1ccccc1C(=O)c1ccccc1` ?
# output 87 % of control

# input Give P388 leukemia ip, CD2F1 mice, survival T/C T/C for `Cc1ccc(NC(=O)Oc2cc(C)c(C)cc2Cl)c([N+](=O)[O-])c1`
# output 112 % of control

# input Param readout= T/C; system= P388 leukemia ip, CD2F1 mice, survival T/C; entry= CC(Nc1ccc(Br)cc1[N+](=O)[O-])C(=O)O (centres undefined) ; returns value.
# output 100 % of control

# input # returns recorded T/C (system: P388 leukemia ip, CD2F1 mice, survival T/C) for `CS(=O)(=O)c1cc(C(=O)O)cc(NCc2ccccc2)c1Oc1ccccc1`
# output 102 % of control

# input Tell me reported T/C for `c1ccc2c3c([nH]c2c1)CCCCC3` , tested with P388 leukemia ip, CD2F1 mice, survival T/C.
# output 118 % of control

# input Short answer please: T/C, P388 leukemia ip, CD2F1 mice, survival T/C, entry `S=c1[nH]nc(NC2CCCCC2)s1`
# output 90 % of control

# input Lab note: need T/C with P388 leukemia ip, CD2F1 mice, survival T/C for entry `CC(C)(C)NC(=S)N/N=C/c1cc(Cl)cc(Cl)c1O` , please look it up.
# output 98 % of control

###

Kindly supply the reported T/C values for the records listed here.
System: P388 leukemia ip, CD2F1 mice, survival T/C
Test: NCI In Vivo Anticancer Drug Screen. Data for tumor model P388 Leukemia (intraperitoneal) in CD2F1 (CDF1) mice
Conditions: endpoint: median survival time; dose: 100.0 mg/kg/injection; schedule: Q01DX001 (ip); vehicle: saline with Tween-80; higher = longer survival
Protocol: The antitumor activity of compounds was measured in mice bearing transplantable tumors. Survival or tumor size were measured and the results are expressed as the measurement made in the treated group (T) divided by the measurement made in the vehicle treated control group (C). The tumor model used in this assay is P388 Leukemia (intraperitoneal) in CD2F1 (CDF1) mice
Toxic doses and inconclusive results are not listed.

# input Quick check: T/C of NC(=O)N1CCC2c3ccccc3NC(=S)N21 (configuration not stated) ?
# output 102 % of control

# input Field request: T/C | item: CCC(c1ccc(OC)cc1)C(NC(=S)Nc1ccc(Br)cc1)c1ccc(OC)cc1 (configuration not stated)
# output 96 % of control

# input Look at this compound and give its reported T/C. `CCOP(=O)(Nc1cc(C)ccc1C)OCC`
# output 105 % of control

# input Quick one: T/C of `CCN(CC)P(Cl)(C1=C(Cl)C(=O)C(C#N)=C(C#N)C1=O)(N(CC)CC)N(CC)CC` ?
# output 89 % of control

# input State the recorded T/C for this entry: `CC(=O)Nc1c(-c2ccccc2)[nH]c2ccccc12`
# output 99 % of control

# input Please look up its T/C: `COc1cc(O)c(/C=N/Nc2ccc3ccccc3n2)c(OC)c1`
# output 91 % of control

# input Can you share its T/C? I mean this compound: `O=C(COc1cccc(Cl)c1)NCc1ccc([N+](=O)[O-])cc1`
# output 100 % of control
